# System: OVCAR-3 ovarian
# PROCEDURE SUMMARY: NCI-60 one-dose screen, 48 h
# MEASUREMENT SETUP: 10 µM unless noted
This is part of a sample that, as a whole, favours compounds with a hit. Of some 83,000 tested, about 20% had one in any assay. Calls of active or inactive are those of the source. The calls were made as follows: active = growth percent below 10; inactive = the rest.
Your answer must be one of the following: active, inactive

Worked examples, 5 compounds total:
{"COMPOUND": "CCOC(=O)c1noc2c1CCc1cn(Cc3cc(OC)cc(OC)c3)cc1-2", "ASSIGNED CATEGORY": "inactive"}
{"COMPOUND": "O=S(=O)(CCN1CCOCC1)Nc1cc(-c2ccc3ncnc(Nc4ccc(F)c(Cl)c4)c3c2)cnc1Cl", "ASSIGNED CATEGORY": "active"}
{"COMPOUND": "NC(=NCCCOc1ccc(F)cc1)Nc1ccc(Cl)c(Cl)c1", "ASSIGNED CATEGORY": "inactive"}
{"COMPOUND": "O=C(O)c1cccc2oc(-c3ccccc3O)nc12", "ASSIGNED CATEGORY": "inactive"}
{"COMPOUND": "CC(=O)N[C@@H](CNC(=O)c1cc(NC(=O)c2cc(NC(=O)c3cc(NC(=O)c4nccn4C)cn3C)cn2C)cn1C)CC(=O)Nc1cn(C)c(C(=O)Nc2cc(C(=O)Nc3cc(C(=O)Nc4cc(C(=O)NCCCN(C)CCCNC(=O)c5cccc(C(=O)O)c5)n(C)c4)n(C)c3)n(C)c2)n1", "ASSIGNED CATEGORY": "inactive"}

Short answer needed: outcome of this test for CC(C(C(=O)N1CCCCC1)N1CCCCC1)N1CCCCC1 (centres undefined) ?
inactive

How about this compound: COc1ccc(-c2nn(-c3cccc(Cl)c3)cc2-c2cc(-c3ccc(Br)cc3)[nH]c(=O)c2C#N)cc1
inactive

// query: CCOC(=O)NNc1nncc2ccccc12
inactive

Can you handle FC(F)(F)c1cn(CCN2CCOCC2)c2ncnc(Cl)c12 next?
inactive
